# Tested on: SK-CO-1
# ASSAY_INFO: Antiproliferative activity against human SKCO1 cells harboring KRAS G12V mutant after 72 hrs by CellTiter-Glo assay
# Type: functional, cell-based
# MEASUREMENT_SETUP: SK-CO-1, 72 h
VALUE_TYPE: IC50
State the result as a value with its unit after it.

Which IC50 value belongs to `Cn1cnc2c(F)c(Nc3ccc(Br)cc3Cl)c(C(=O)NOCCO)cc21` ?
117 nM

Which IC50 value belongs to `C=CC(=O)Nc1ccccc1Oc1nc(Nc2ccc(N3CCN(C)CC3)cc2)ncc1Cl` ?
294 nM

Which IC50 value belongs to `C=CC(=O)Nc1ccccc1Oc1nc(Nc2cnn(CCOC)c2)ncc1Cl` ?
318 nM

Which IC50 value belongs to `COc1cc(O)c2c(c1)/C=C/C[C@H](O)[C@H](O)C(=O)/C=C\C[C@H](C)OC2=O` ?
250 nM

Which IC50 value belongs to `CCC(=O)Nc1ccccc1Oc1nc(Nc2cnn(CCOC)c2)ncc1Cl` ?
2620 nM

Which IC50 value belongs to `CCC(=O)Nc1ccccc1Oc1nc(Nc2ccc(N3CCN(C)CC3)cc2)ncc1Cl` ?
213 nM

Which IC50 value belongs to `CC(C)Nc1cc(-c2c[nH]c(C(=O)N[C@H](CO)c3cccc(Cl)c3)c2)c(Cl)cn1` ?
356 nM

Which IC50 value belongs to `CCC(=O)Nc1ccccc1Nc1nc(Nc2ccc(N3CCN(C)CC3)cc2)ncc1Cl` ?
54 nM

----------
# Tested on: BaF3
# ASSAY_INFO: Antiproliferative activity against mouse BA/F3 cells harboring NRAS G12D mutant after 72 hrs in presence of IL-3 by CellTiter-Glo assay
# Assay type: functional, cell-based
# MEASUREMENT_SETUP: BaF3, 72 h
VALUE_TYPE: IC50 (nM)
Just the number please, in nM, no unit attached.

Which IC50 value belongs to `C=CC(=O)Oc1ccccc1Nc1nc(Nc2ccc(N3CCOCC3)cc2)ncc1Cl` ?
390

Which IC50 value belongs to `C=CC(=O)Nc1ccccc1Oc1nc(Nc2cnn(C(F)F)c2)ncc1Cl` ?
277

Which IC50 value belongs to `CN1CCN(c2ccc(Nc3ncc(Cl)c(Nc4ccccc4NC(=O)CCl)n3)cc2)CC1` ?
178

Which IC50 value belongs to `C=CC(=O)Nc1ccccc1Oc1nc(Nc2ccc(N3CCN(C)CC3)cc2)ncc1Cl` ?
61

Which IC50 value belongs to `C=CC(=O)Nc1ccccc1Oc1nc(Nc2cnn(C)c2)ncc1Cl` ?
1020

----------
# ASSAY_INFO: Antiproliferative activity against human SW156 cells harboring wild type KRAS after 72 hrs by CellTiter-Glo assay
# Format: functional, cell-based
Please provide measured IC50 for the entries that follow.

Which IC50 value belongs to CC(C)Nc1cc(-c2c[nH]c(C(=O)N[C@H](CO)c3cccc(Cl)c3)c2)c(Cl)cn1 [ULIXERTINIB] ?
1.24 µM

Which IC50 value belongs to `CCC(=O)Nc1ccccc1Oc1nc(Nc2ccc(N3CCN(C)CC3)cc2)ncc1Cl` ?
3.73 µM

Which IC50 value belongs to `CCC(=O)Nc1ccccc1Nc1nc(Nc2ccc(N3CCN(C)CC3)cc2)ncc1Cl` ?
0.363 µM

Which IC50 value belongs to `C=CC(=O)Nc1ccccc1Oc1nc(Nc2ccc(N3CCN(C)CC3)cc2)ncc1Cl` ?
2.88 µM

Which IC50 value belongs to `COc1cc(O)c2c(c1)/C=C/C[C@H](O)[C@H](O)C(=O)/C=C\C[C@H](C)OC2=O` ?
2.02 µM

Which IC50 value belongs to `C=CC(=O)Nc1ccccc1Oc1nc(Nc2cnn(CCOC)c2)ncc1Cl` ?
3.02 µM
